Biological target: T1, FZD7 CRD (Homo sapiens, UniProt O75084)
T1 construct: D45-S169; GPI anchor signal (C); expressed in transfected cells; host or cells: CHO cells, lentiviral pLenti-puro
Assay: Immunofluorescence of anti-FZD5 Fab binding to CHO cells overexpressing Frizzled CRD
Design: key: −: no binding; +: very weak binder; ++: weak binder; +++: good binder; ++++: very good binder
OUTCOME MEASURE: Immunofluorescence binding, Frizzled CRD overexpressed on CHO cells: FZD7

- Fab-2907: anti-FZD5 Fab with antibody variable region Fv-2907; CDR SEQ ID NOs: 35, 36, 46, 85, 122, 159 (antibody, V domains shown) VH: EVQLVESGGGLVQPGGSLRLSCAASGFNIYSSYMHWVRQAPGKGLEWVASISSYSGSTYYADSVKGRFTISADTSKNTAYLQMNSLRAEDTAVYYCARSSWGAYIVSYGFDYWGQGTLVTVSS VL: DIQMTQSPSSLSASVGDRVTITCRASQSVSSAVAWYQQKPGKAPKLLIYSASSLYSGVPSRFSGSRSGTDFTLTISSLQPEDFATYYCQQVGYWWGLITFGQGTKVEIK: +
- Fab-2920: anti-FZD5 Fab with antibody variable region Fv-2920; CDR SEQ ID NOs: 35, 36, 59, 98, 135, 170 (antibody, V domains shown) VH: EVQLVESGGGLVQPGGSLRLSCAASGFNISYYYIHWVRQAPGKGLEWVASIYPSSGSTSYADSVKGRFTISADTSKNTAYLQMNSLRAEDTAVYYCARGGMDYWGQGTLVTVSS VL: DIQMTQSPSSLSASVGDRVTITCRASQSVSSAVAWYQQKPGKAPKLLIYSASSLYSGVPSRFSGSRSGTDFTLTISSLQPEDFATYYCQQWFAGALITFGQGTKVEIK: −
- Fab-2926: anti-FZD5 Fab with antibody variable region Fv-2926; CDR SEQ ID NOs: 35, 36, 65, 103, 141, 173 (antibody, V domains shown) VH: EVQLVESGGGLVQPGGSLRLSCAASGFNIYSSYMHWVRQAPGKGLEWVASIYPSSSSTSYADSVKGRFTISADTSKNTAYLQMNSLRAEDTAVYYCARGGLDYWGQGTLVTVSS VL: DIQMTQSPSSLSASVGDRVTITCRASQSVSSAVAWYQQKPGKAPKLLIYSASSLYSGVPSRFSGSRSGTDFTLTISSLQPEDFATYYCQQWYHGGSLFTFGQGTKVEIK: −
- Fab-2933: anti-FZD5 Fab with antibody variable region Fv-2933; CDR SEQ ID NOs: 35, 36, 72, 109, 148, 177 (antibody, V domains shown) VH: EVQLVESGGGLVQPGGSLRLSCAASGFNLYSSYMHWVRQAPGKGLEWVASIYSSYGYTSYADSVKGRFTISADTSKNTAYLQMNSLRAEDTAVYYCARTVRGSKKPYFSGWAMDYWGQGTLVTVSS VL: DIQMTQSPSSLSASVGDRVTITCRASQSVSSAVAWYQQKPGKAPKLLIYSASSLYSGVPSRFSGSRSGTDFTLTISSLQPEDFATYYCQQFWWYASWLFTFGQGTKVEIK: +
- Fab-2909: anti-FZD5 Fab with antibody variable region Fv-2909; CDR SEQ ID NOs: 35, 36, 48, 87, 124, 161 (antibody, V domains shown) VH: EVQLVESGGGLVQPGGSLRLSCAASGFNISSSYMHWVRQAPGKGLEWVASISSSSGYTSYADSVKGRFTISADTSKNTAYLQMNSLRAEDTAVYYCARTVRGSKKPYFSGWAMDYWGQGTLVTVSS VL: DIQMTQSPSSLSASVGDRVTITCRASQSVSSAVAWYQQKPGKAPKLLIYSASSLYSGVPSRFSGSRSGTDFTLTISSLQPEDFATYYCQQSWSYHYLITFGQGTKVEIK: +
- Fab-2899: anti-FZD5 Fab with antibody variable region Fv-2899; CDR SEQ ID NOs: 35, 36, 38, 77, 114, 153 (antibody, V domains shown) VH: EVQLVESGGGLVQPGGSLRLSCAASGFNLYYYYMHWVRQAPGKGLEWVASIYPSSGSTSYADSVKGRFTISADTSKNTAYLQMNSLRAEDTAVYYCARGALDYWGQGTLVTVSS VL: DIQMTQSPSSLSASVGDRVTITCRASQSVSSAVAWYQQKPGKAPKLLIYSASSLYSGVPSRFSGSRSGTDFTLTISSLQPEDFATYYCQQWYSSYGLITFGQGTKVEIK: +++
- Fab-2903: anti-FZD5 Fab with antibody variable region Fv-2903; CDR SEQ ID NOs: 35, 36, 42, 81, 118, 155 (antibody, V domains shown) VH: EVQLVESGGGLVQPGGSLRLSCAASGFNLSYYYIHWVRQAPGKGLEWVASIYPYSSYTSYADSVKGRFTISADTSKNTAYLQMNSLRAEDTAVYYCARGAIDYWGQGTLVTVSS VL: DIQMTQSPSSLSASVGDRVTITCRASQSVSSAVAWYQQKPGKAPKLLIYSASSLYSGVPSRFSGSRSGTDFTLTISSLQPEDFATYYCQQWGGGSSLFTFGQGTKVEIK: ++
- Fab-2935: anti-FZD5 Fab with antibody variable region Fv-2935; CDR SEQ ID NOs: 35, 36, 74, 111, 150, 178 (antibody, V domains shown) VH: EVQLVESGGGLVQPGGSLRLSCAASGFNIYYYYIHWVRQAPGKGLEWVASIYPSSGSTSYADSVKGRFTISADTSKNTAYLQMNSLRAEDTAVYYCARAAFDYWGQGTLVTVSS VL: DIQMTQSPSSLSASVGDRVTITCRASQSVSSAVAWYQQKPGKAPKLLIYSASSLYSGVPSRFSGSRSGTDFTLTISSLQPEDFATYYCQQWYGGYALITFGQGTKVEIK: −
